B1: TCEB3B (parent)
chain: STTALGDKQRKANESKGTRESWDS

variants of: B1; assay: protein stability index of a GFP-peptide fusion (GPS, HEK-293T) (PSI 1-6); higher = more stable; conditions: c terminus: a fixed tail appended;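 also: lentivirally expressed fusions sorted by FACS into six bins by GFP to DsRed ratio, PSI derived from sequencing read proportions per bin multiplied by bin number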
MEASURED_PARAMETER: protein stability index
Form rule: numeric answer, no unit written next to it.

Use the examples below as a reference point.
- RESIDUE_CHANGE: "A12N"
  MEASURED_PARAMETER: "protein stability index"
  OBSERVED_RESULT: 4.2
- RESIDUE_CHANGE: "K16Q"
  MEASURED_PARAMETER: "protein stability index"
  OBSERVED_RESULT: 4.24

**Q:** Item E20W has what recorded protein stability index?
**A:** 4.5

**Q:** Any idea what its protein stability index is? The variant is R10Y
**A:** 4.26

**Q:** If you can, please state the reported protein stability index value of W22R .
**A:** 5.82

**Q:** Form field: reported protein stability index of D23P
**A:** 4.76

**Q:** Field request: protein stability index | item: E14C
**A:** 2.77
